# AC50 per entry for UniProt:P11712
Reported endpoint: AC50

| Compound | Reported endpoint | Endpoint result |
| --- | --- | --- |
| CCC(C)N1C(=O)C2C(C(=O)Nc3cccc(OC)c3)C3C=CC2(O3)C1C(=O)NC1CCCCC1C (stereo not drawn) | AC50 | 12.6 µM (inconclusive) |
| C=CCSc1ncccc1C(=O)NCc1ccc(C)cc1 | AC50 | 12.6 µM (inconclusive) |
| COc1ccc2oc(=O)c(C(=O)Oc3ccc(NC(C)=O)cc3)cc2c1 | AC50 | 39.8 µM (inconclusive) |

* * *

- Assayed target: UniProt:Q9H0H5
- Sequence (Q9H0H5 whole entry): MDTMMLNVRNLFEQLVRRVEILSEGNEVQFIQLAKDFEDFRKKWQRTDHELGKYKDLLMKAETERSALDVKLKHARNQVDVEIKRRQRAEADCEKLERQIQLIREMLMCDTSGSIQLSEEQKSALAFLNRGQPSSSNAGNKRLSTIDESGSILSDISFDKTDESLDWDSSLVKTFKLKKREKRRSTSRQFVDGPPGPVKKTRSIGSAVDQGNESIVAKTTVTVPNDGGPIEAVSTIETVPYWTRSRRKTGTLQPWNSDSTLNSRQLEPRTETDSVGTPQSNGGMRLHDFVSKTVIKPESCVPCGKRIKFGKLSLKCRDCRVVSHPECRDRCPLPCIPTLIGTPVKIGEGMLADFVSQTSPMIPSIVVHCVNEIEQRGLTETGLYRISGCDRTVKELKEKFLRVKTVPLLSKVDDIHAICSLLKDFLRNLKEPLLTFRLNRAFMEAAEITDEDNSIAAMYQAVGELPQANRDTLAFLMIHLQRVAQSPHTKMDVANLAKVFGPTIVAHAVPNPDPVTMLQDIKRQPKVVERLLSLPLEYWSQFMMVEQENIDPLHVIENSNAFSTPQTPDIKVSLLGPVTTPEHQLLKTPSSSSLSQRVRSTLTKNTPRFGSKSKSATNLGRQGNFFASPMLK
- Experiment: MgcRacGAP GTPase-activating activity inhibitors, confirmation, biochemical, ADP Hunter fluorescence, primary and confirmatory (AID 624330)
- Assay type: functional
Calls of active or inactive are those of the source.
Consider the following compounds and their measured IC50 readings.

| Compound | IC50 |
| --- | --- |
| COc1ccc(NC2CCCN(C(=O)c3cccc(N4CCNC4=O)c3)C2)cc1 (stereo not drawn) | 75.2 µM (active) |
| Cc1ccc(OCCN2CCN(C)CC2)c([N+](=O)[O-])c1 | 75.4 µM (active) |
| CN1CCN(CCCN2c3ccccc3Sc3ccc(Cl)cc32)CC1 [PROCHLORPERAZINE EDISYLATE] | 80 µM (active) |

* * *

- Assayed target: Heat shock factor protein 1 (Mus musculus)
- Experiment: inhibition of MG132-induced HSE-luciferase signal, confirmation, cell-based, NIH3T3, luminescence, dose retest (AID 2382);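 further: NIH3T3 fibroblasts with HSF1-driven luciferase reporter stressed by proteasome inhibitor MG132; luminescence from HSF1-driven luciferase expression after 8 hours of MG132 stress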
- Type: functional
Activity calls are given as the source filed them.
Measured EC50, listed per entry for reference.

| Molecule | EC50 |
| --- | --- |
| CCCCn1c(N)c(N(CC(C)C)C(=O)c2cccc(S(=O)(=O)N3CCCCC3)c2)c(=O)[nH]c1=O | > 195 µM (not active) |
| CN1C(=O)c2ccccc2Sc2ccc(C(=O)N3CCC4(CC3)OCCO4)cc21 | > 195 µM (not active) |
| COc1cccc(/C=C(\C#N)c2nc3ccccc3[nH]2)c1OCC(=O)O | > 195 µM (not active) |
| CSC1=N/C(=C\C=C\c2cccs2)C(=O)S1 | 0.853 µM (active) |
| Cn1c(=O)n(C)c2cc(NS(C)(=O)=O)ccc21 | > 195 µM (not active) |
| CCN(C(=O)COC(=O)/C=C/c1ccccc1)C1CCCCC1 | > 195 µM (not active) |
| CCN(CC)S(=O)(=O)c1ccc(C)c(NC(=O)CNCc2ccccc2OC)c1 | > 195 µM (not active) |
| O=C(O)c1ccc(N/N=C/c2ccc(OC(=O)c3ccccc3Cl)cc2)cc1 | 0.167 µM (active) |
| NS(=O)(=O)c1ccc(CCNC(=O)c2ccc(C#CC3(O)CCCCC3)cc2)cc1 | 7.97 µM (active) |
| COc1cc(/C=C/c2nc(N)nc(-c3ccccc3O)n2)cc(OC)c1OC | 36.1 µM (active) |
| COCCN(C(S)=Nc1c(C)cccc1C)C(C)c1cccnc1 (configuration not stated) | > 195 µM (not active) |
| FC(F)Oc1ccc(NC(S)=NNc2ccnc3cc(Cl)ccc23)cc1 | > 195 µM (not active) |
| COc1ccc(CC(NC(C)=O)C(=O)NC2CCN(C(=O)c3ccc(OC)c(OC)c3)CC2)cc1OC (configuration not stated) | > 195 µM (not active) |
| CC(c1ccccc1)N1CCN(C(=O)CCl)CC1 (configuration not stated) | 43.8 µM (active) |
| Cc1nn(C)c(Cl)c1CN1CCC(n2nccc2NC(=O)C2CCCC2)CC1 | > 195 µM (not active) |
| CC(C(=O)NC1CC(C)(C)NC(C)(C)C1)c1ccc([N+](=O)[O-])cc1 (configuration not stated) | > 195 µM (not active) |
| O=C(Nc1cccc(S(=O)(=O)N2CCOCC2)c1)c1ccccn1 | > 195 µM (not active) |

* * *

- Assayed target: Voltage-gated N-type calcium channel alpha-1B subunit/Amyloid beta A4 precursor protein-binding family A member 1 (Homo sapiens, UniProt Q00975+Q02410)
- Sequence (Q00975 whole entry): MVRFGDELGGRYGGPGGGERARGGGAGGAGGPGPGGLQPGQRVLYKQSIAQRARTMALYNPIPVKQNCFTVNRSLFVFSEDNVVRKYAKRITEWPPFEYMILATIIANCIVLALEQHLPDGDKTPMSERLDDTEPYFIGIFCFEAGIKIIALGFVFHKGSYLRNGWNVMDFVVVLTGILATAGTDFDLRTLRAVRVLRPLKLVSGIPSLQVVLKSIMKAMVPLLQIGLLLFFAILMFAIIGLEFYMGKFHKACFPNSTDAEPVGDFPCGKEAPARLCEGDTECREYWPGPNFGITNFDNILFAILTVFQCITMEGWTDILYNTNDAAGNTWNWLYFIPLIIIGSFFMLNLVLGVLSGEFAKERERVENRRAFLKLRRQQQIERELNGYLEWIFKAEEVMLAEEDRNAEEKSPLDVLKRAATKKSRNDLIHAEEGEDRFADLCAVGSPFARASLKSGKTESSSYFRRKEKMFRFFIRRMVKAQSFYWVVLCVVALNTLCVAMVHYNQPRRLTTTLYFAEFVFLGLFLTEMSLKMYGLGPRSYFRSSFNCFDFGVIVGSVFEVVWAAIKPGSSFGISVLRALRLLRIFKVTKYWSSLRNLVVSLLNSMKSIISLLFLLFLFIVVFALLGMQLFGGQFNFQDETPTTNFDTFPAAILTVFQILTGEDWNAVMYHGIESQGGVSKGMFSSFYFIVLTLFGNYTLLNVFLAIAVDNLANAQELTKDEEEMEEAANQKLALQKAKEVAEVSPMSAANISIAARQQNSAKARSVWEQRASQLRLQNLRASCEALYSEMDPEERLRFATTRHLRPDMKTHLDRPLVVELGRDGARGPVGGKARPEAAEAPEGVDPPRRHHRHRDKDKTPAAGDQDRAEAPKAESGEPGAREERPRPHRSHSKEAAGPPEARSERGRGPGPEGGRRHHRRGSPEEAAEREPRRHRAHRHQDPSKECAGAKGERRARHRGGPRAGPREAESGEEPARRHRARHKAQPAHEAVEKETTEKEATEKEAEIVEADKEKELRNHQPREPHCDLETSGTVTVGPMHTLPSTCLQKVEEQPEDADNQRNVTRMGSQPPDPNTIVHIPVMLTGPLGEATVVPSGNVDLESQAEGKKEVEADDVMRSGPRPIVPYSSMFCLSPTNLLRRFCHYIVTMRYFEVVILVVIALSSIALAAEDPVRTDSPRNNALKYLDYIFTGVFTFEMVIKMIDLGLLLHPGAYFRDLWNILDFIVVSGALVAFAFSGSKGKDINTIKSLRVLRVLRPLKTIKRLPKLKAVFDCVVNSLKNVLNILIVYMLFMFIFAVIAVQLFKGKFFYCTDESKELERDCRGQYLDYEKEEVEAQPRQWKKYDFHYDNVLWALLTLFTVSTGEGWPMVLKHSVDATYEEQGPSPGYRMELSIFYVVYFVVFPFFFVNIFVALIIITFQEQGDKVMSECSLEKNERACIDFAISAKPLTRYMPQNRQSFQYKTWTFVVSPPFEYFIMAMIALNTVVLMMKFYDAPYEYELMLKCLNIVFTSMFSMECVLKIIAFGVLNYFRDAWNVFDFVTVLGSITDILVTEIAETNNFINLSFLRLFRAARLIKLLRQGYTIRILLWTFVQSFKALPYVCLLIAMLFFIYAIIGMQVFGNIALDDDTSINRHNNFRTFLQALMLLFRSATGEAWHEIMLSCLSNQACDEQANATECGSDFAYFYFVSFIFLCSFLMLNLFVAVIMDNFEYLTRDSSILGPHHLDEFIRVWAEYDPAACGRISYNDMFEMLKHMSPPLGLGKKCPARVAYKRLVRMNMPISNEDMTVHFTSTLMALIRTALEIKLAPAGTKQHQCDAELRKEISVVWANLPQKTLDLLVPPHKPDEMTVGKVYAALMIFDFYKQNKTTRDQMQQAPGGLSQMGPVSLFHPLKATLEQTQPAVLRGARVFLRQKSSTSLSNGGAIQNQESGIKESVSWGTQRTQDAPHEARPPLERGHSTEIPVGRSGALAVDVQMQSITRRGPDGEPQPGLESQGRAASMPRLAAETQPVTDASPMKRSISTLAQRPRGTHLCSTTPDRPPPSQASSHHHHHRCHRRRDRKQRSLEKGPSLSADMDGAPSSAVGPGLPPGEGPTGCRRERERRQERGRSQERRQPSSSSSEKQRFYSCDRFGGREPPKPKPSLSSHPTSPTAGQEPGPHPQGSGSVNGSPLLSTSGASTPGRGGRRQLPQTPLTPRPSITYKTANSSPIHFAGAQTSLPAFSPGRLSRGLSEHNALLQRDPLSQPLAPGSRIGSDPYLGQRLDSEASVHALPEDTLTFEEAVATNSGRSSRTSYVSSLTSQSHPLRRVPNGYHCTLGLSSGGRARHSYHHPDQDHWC
- Sequence (Q02410 whole entry): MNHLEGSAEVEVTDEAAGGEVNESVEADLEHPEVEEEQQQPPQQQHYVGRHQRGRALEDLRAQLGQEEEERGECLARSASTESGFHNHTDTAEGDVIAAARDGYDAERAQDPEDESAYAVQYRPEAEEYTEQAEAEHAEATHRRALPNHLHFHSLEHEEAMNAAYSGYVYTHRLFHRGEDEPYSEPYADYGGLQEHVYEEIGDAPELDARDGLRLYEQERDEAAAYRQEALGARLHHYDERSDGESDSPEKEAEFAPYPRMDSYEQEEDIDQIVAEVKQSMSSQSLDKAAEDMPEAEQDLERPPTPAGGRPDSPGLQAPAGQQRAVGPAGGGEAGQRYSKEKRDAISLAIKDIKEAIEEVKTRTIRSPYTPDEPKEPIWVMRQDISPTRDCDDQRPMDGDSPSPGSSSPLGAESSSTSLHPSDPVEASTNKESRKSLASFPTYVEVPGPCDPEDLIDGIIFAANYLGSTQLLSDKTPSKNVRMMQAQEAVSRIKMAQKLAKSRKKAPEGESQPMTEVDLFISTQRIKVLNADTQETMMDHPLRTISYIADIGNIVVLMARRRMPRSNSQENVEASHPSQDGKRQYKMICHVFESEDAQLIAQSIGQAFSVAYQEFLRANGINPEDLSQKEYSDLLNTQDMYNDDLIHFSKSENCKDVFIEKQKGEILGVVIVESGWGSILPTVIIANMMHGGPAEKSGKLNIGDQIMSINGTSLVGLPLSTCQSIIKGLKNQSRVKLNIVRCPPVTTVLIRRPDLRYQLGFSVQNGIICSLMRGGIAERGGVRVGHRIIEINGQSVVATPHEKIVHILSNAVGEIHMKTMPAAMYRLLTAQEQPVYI
- Assay type: protein assay
Active and inactive are the calls of the source.

| Molecule smiles | IC50 |
| --- | --- |
| CCOc1ccc(NC(=O)c2ccc(NC(=O)c3ccc(CN4CCOCC4)cc3)cc2)cc1 | 10.1 µM (active) |
| CNC(=S)N=C(Nc1ccc(C)cc1)c1ccccc1 | 2.38 µM (active) |
| Cc1ccc(-c2ccc(/C=C3\C(=O)ON=C3c3ccccc3)o2)c([N+](=O)[O-])c1 | 10.5 µM (active) |

* * *

- Experiment: inhibitors of firefly luciferase expression or activity, dose response, H4 neuroglioma cells, luminescence (AID 1990)
- Type: functional, cell-based
Calls of active or inactive are those of the source.
Reported endpoint: EC50

| Compound | Reported endpoint | Endpoint result |
| --- | --- | --- |
| COc1cccc(C2Nc3ccc4ccccc4c3C3=C2C(=O)CCC3)c1O (stereo not given) | EC50 | 10 µM (active) |
| CC(C)n1cnc2c(Nc3cccc(Cl)c3)nc(N(CCO)CCCO)nc21 | EC50 | 10.8 µM (active) |
| COCCCNc1nnc(Cc2ccc(Cl)cc2)c(O)n1 | EC50 | 9.25 µM (inconclusive) |
| COc1ccc(CCN2CC3=C(C2=O)C(c2ccccc2)NC(=O)N3C)cc1OC (stereo not given) | EC50 | 24.4 µM (active) |
| Cc1cc(C(=O)CC#N)c(C)n1-c1c(C)n(C)n(-c2ccccc2)c1=O | EC50 | > 120 µM (not active) |

* * *

- Assayed target: Cytochrome P450 3A4 (Homo sapiens);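 further: CYP3A4 tested as one member of a cytochrome P450 panel screen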
- Sequence (P08684 whole entry): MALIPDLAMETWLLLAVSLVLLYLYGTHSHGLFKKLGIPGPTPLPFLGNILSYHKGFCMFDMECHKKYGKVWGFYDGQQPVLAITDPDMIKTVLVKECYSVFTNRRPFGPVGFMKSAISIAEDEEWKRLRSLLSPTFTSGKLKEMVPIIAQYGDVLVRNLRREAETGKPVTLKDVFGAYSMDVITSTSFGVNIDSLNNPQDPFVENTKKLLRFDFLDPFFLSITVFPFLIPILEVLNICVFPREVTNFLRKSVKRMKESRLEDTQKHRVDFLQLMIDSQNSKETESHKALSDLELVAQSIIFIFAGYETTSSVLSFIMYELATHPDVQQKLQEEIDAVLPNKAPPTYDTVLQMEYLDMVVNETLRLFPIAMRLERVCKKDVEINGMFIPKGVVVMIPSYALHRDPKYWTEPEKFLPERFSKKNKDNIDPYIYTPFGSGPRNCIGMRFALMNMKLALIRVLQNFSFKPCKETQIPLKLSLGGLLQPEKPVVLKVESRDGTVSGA
Measured AC50, listed per entry for reference.
Reported endpoint: AC50

| Molecule | Assayed target | Endpoint result |
| --- | --- | --- |
| COCCn1c(=O)cnc2cnc(Oc3cccc(Cl)c3)nc21 | Cytochrome P450 3A4 (Homo sapiens) | 31.6 µM (inconclusive) |
| Cc1ccc(-n2c(C)cc(C(=S)N3CCOCC3)c2C)cc1C | Cytochrome P450 3A4 (Homo sapiens) | 31.6 µM (inconclusive) |
| Cc1ccc2c(c1)N(CCC(=O)NCC1CCCO1)C(=O)CO2 (centres undefined) | Cytochrome P450 3A4 (Homo sapiens) | 25.1 µM (inconclusive) |
| COc1ncc2nc(C)c(=O)n(-c3ccccc3)c2n1 | Cytochrome P450 3A4 (Homo sapiens) | 25.1 µM (inconclusive) |

* * *

Each entry below carries its reported EC50.
- Assayed target: Zinc finger protein mex-5 (Caenorhabditis elegans, UniProt Q9XUB2)
- Sequence (Q9XUB2 whole entry): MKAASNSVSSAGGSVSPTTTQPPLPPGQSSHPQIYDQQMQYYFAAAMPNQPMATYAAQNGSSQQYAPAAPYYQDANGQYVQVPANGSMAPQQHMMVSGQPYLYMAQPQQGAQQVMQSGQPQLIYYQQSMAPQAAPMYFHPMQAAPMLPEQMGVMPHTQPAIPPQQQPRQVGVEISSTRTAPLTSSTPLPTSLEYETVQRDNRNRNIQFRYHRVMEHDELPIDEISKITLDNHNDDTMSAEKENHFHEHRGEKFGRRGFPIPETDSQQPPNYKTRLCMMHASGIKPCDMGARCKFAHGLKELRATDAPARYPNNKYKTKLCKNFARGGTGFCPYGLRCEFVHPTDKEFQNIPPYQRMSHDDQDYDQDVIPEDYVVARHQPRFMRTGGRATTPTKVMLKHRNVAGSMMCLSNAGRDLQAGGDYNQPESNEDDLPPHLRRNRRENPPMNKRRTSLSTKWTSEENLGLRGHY
- Experiment: MEX-5/TCR-2 RNA interaction inhibitors, dose response, biochemical, C. elegans, fluorescence polarization (AID 1960)
Activity calls are given as the source filed them.
Reported endpoint: EC50

| Compound | Reported endpoint | Endpoint result |
| --- | --- | --- |
| Cc1cccc(-n2c(C)cc(C=C3C(=O)c4ccccc4C3=O)c2C)c1 | EC50 | 34.7 µM (inconclusive) |
| Cc1cccn2c(=O)c3cc(C(=O)NC4CCCCC4)c(=N)n(Cc4ccccc4)c3nc12 | EC50 | 8.47 µM (active) |
| COC/C=C/C1=CC2=CC(=O)C(C)(OC(=O)CCC(=O)OC)C(=O)C2=CO1 (configuration not stated) | EC50 | 17 µM (active) |
| COc1ccc(/N=C/c2cc3c(cc2O)OC(N)=C(C#N)C3c2ccccc2)cc1 (configuration not stated) | EC50 | > 300 µM (not active) |
| Cc1ccc2nc3sc(C(=O)N4CCOCC4)c(N)c3cc2c1 | EC50 | > 300 µM (inconclusive) |
| CC1=NN(c2ccc(C(=O)O)c(N)c2)C(=O)C1 | EC50 | 38.3 µM (active) |
| COc1ccc(C(=O)/C=C/c2ccc(-c3ccccc3)cc2)cc1CSCC(=O)O | EC50 | > 300 µM (not active) |

* * *

- Assayed target: Cytochrome P450 2C19 (Homo sapiens)
- Experiment: Cytochrome panel assay with activity outcomes. Panel member name: p450-cyp2c19 Compounds with AC50 equal or less than 10 uM are considered active
- Assay type: functional
- Setup conditions: read-out: AC50
AC50 listing for selected compounds.

| Compound | AC50 |
| --- | --- |
| O=S(=O)(O)c1ccc2c(/N=N\c3c(O)ccc4ccccc34)cccc2c1 | 0.631 µM (inconclusive) |
| Cn1c(=O)cnc2cnc(Oc3ccccc3)nc21 | 39.8 µM (inconclusive) |
| Cc1cc(C(=O)CC#N)c(C)n1CC(F)(F)F | 22.4 µM (inconclusive) |
| CCCOc1ccc(C(=O)NC(=S)Nc2nc3ccc(C)cc3s2)cc1 | 15.8 µM (inconclusive) |
| CCCCn1nc2cc(C(=O)NC3CCCc4ccccc43)ccc2c1OCC (stereo not given) | 39.8 µM (inconclusive) |
